B1: ZBED2 (parent)
chain: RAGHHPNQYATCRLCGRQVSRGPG

- Variants of: B1
- test_summary: protein stability index of a GFP-peptide fusion (GPS, HEK-293T) (PSI 1-6); higher = more stable;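 further: lentivirally expressed fusions sorted by FACS into six bins by GFP to DsRed ratio, PSI derived from sequencing read proportions per bin multiplied by bin number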
- details: c terminus: a fixed tail appended
Task for the reader: assign each of the following variants its reported protein stability index.
Answer with a bare number; do not write a unit.

So, T11I ? Its protein stability index was 2.27

So, R13T ? Its protein stability index was 2.4

So, A10W ? Its protein stability index was 1.76

So, H4E ? Its protein stability index was 2.16

So, G22T ? Its protein stability index was 2.24

So, V19K ? Its protein stability index was 3.86

So, G16S ? Its protein stability index was 2.2

So, S20W ? Its protein stability index was 1.59

So, L14C ? Its protein stability index was 2.79

So, A2Y ? Its protein stability index was 2.04
